pIC50: −log10 of the molar value.
For reference, pIC50 measured on Human PDE10A1 (Homo sapiens):

Examples with answers:
- structure: "Clc1cccc(-c2ccc(OCc3ccc4ccccc4n3)cc2)c1-c1ccncc1"
  testResult: "< 7.30"
- structure: "COc1ccc(-c2ccccc2-c2ccc(OCc3ccc4ccccc4n3)cc2)cc1C(F)(F)F"
  testResult: "≥ 7.30"
- structure: "Cc1cccc(-c2ccncc2)c1-c1ccc(OCc2ccc3ccccc3n2)cc1"
  testResult: "≥ 7.30"

The molecule N#Cc1ccc(-c2ccccc2-c2ccc(OCc3ccc4ccccc4n3)cc2)cc1Cl on Human PDE10A1 (Homo sapiens): pIC50 was < 7.30

The molecule COc1ccccc1-c1ccc(OCc2ccc3ccccc3n2)cc1 on Human PDE10A1 (Homo sapiens): pIC50 was < 7.30

The molecule COc1ccc(-c2ccccc2-c2ccc(OCc3ccc4ccccc4n3)cc2)cc1C#N on Human PDE10A1 (Homo sapiens): pIC50 was ≥ 7.30
